# Tested on: Aspergillus fumigatus
# assayMethodText: Antimicrobial activity against Aspergillus fumigatus at 2.5 ug/mL by agar diffusion method
# Type: functional
# testSettings: read-out: IZ
Think of 10 mm as a floor: if zone of inhibition at 2.5 µg/mL stands on it or above, it is met; beneath it, not met.

Answered cases to consult:
c1ccc2c(c1)CCCc1nnc3nncn3c1-2 = not met
Cc1cccc(N/N=C2\CCCc3ccccc3C2=O)c1 = met

State whether the measured zone of inhibition at 2.5 µg/mL reaches 10 mm, counting equality as reaching it, for "Cc1ccc(N/N=C2\CCCc3ccccc3C2=O)cc1" met

State whether the measured zone of inhibition at 2.5 µg/mL reaches 10 mm, counting equality as reaching it, for "CN(C/C=C/C#CC(C)(C)C)Cc1cccc2ccccc12" met

State whether the measured zone of inhibition at 2.5 µg/mL reaches 10 mm, counting equality as reaching it, for "CC(=O)c1ccc(N/N=C2\CCCc3ccccc3C2=O)cc1" met

State whether the measured zone of inhibition at 2.5 µg/mL reaches 10 mm, counting equality as reaching it, for "O=C1/C(=N/Nc2cccc(Cl)c2)CCCc2ccccc21" not met

State whether the measured zone of inhibition at 2.5 µg/mL reaches 10 mm, counting equality as reaching it, for "O=C1/C(=N/Nc2cccc([N+](=O)[O-])c2)CCCc2ccccc21" met

State whether the measured zone of inhibition at 2.5 µg/mL reaches 10 mm, counting equality as reaching it, for "O=C1/C(=N/Nc2ccc([N+](=O)[O-])cc2)CCCc2ccccc21" not met
